B1: C1orf137 (parent)
chain: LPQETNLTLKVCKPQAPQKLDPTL

Variants of: B1
measurement.notes: protein stability index of a GFP-peptide fusion (GPS, HEK-293T) (PSI 1-6); higher = more stable;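 note: lentivirally expressed fusions sorted by FACS into six bins by GFP to DsRed ratio, PSI derived from sequencing read proportions per bin multiplied by bin number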
details: c terminus: a fixed tail appended
# reported protein stability index; entries follow
measured.metric: protein stability index

> print(dat)
                   sequence.content          measured.metric  result
 1   LPQEMNLTLKVCKPQAPQKLDPTL [T5M]  protein stability index    3.58
 2  LPQETNLTLKVCKPQAPQKLDPVL [T23V]  protein stability index     3.4
 3   LPLETNLTLKVCKPQAPQKLDPTL [Q3L]  protein stability index    3.58
 4  LPQETNLTLKVCKPQAPAKLDPTL [Q18A]  protein stability index    4.65
 5  LPQETNLTLKVCKPQAPQELDPTL [K19E]  protein stability index    3.77
 6  LPQETNLTLKVCWPQAPQKLDPTL [K13W]  protein stability index    2.25
 7   SPQETNLTLKVCKPQAPQKLDPTL [L1S]  protein stability index    4.46
 8   LPQEANLTLKVCKPQAPQKLDPTL [T5A]  protein stability index    4.02
 9  LPQETNLTLKVCKPQAPGKLDPTL [Q18G]  protein stability index    3.59
10  LPQETNLTLKVCTPQAPQKLDPTL [K13T]  protein stability index    4.06
11  LPQETNLTLKVCKPQAPQKLDYTL [P22Y]  protein stability index    3.06
12  LPQETNLTLKVCKPQAPQPLDPTL [K19P]  protein stability index    3.96
13   LAQETNLTLKVCKPQAPQKLDPTL [P2A]  protein stability index    3.84
14  LPQETNLTLKVCKPQAPRKLDPTL [Q18R]  protein stability index     3.8
15  LPQETNLTLKVCKPQAPQKLDPNL [T23N]  protein stability index     4.2
16  LPQETNLTLKVCVPQAPQKLDPTL [K13V]  protein stability index    3.42
17   LPFETNLTLKVCKPQAPQKLDPTL [Q3F]  protein stability index    3.08
18  LPQETNLTLKVCKPQQPQKLDPTL [A16Q]  protein stability index    3.96
19  LPQETNLTLKKCKPQAPQKLDPTL [V11K]  protein stability index    3.65
20  LPQETNLTLKVCKPQAPQKLIPTL [D21I]  protein stability index    2.74
21   LPQETELTLKVCKPQAPQKLDPTL [N6E]  protein stability index    4.15
22   LPYETNLTLKVCKPQAPQKLDPTL [Q3Y]  protein stability index    3.34
